Taken from PubChem BioAssay AID729.

# TEST_TARGET: Sphingosine 1-phosphate receptor 2 (Homo sapiens) (UniProt O95136)
# Sequence (O95136 whole entry, looked up): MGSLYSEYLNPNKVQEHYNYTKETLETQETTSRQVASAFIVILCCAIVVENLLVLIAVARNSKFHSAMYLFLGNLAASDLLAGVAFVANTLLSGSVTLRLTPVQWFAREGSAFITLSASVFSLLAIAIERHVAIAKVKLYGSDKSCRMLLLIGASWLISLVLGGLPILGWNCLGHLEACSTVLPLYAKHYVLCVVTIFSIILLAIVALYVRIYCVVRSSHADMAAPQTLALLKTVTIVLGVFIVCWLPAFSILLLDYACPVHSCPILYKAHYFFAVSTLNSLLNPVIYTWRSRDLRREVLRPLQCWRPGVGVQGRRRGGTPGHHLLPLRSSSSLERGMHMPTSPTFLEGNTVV
# TEST_DESCRIPTION: activation of human S1P2 receptor – cell-based, primary screen (AID 729)
# TEST_PARAMETERS: S1P2-expressing cell line, agonist reporter read-out; at 4.5 µM
Out of some 97,000 compounds screened, about 450 (0.46%) were called active. Rule as the data show it: active = activation above about 16%; inactive = the rest. Only a selection was taken, and actives are over-represented in it overall.
The reply should be one of these categories: active, inactive

GET /call?item= "C=C(C)Cn1c(N2CCN(CC)CC2)nc2c1c(=O)[nH]c(=O)n2C" returns the recorded outcome of this test. inactive

How about CSCCC(NC(=O)COc1ccccc1)C(=O)OCC(=O)c1cc2ccccc2o1 (stereo unspecified) ? inactive

How about "CCN(CC)c1nc(-c2ccccc2)cc(C(F)(F)F)c1C#N" ? active

How about O=C(NC(C(=O)NCCN1CCOCC1)C12CC3CC(CC(C3)C1)C2)C1CCCCC1 (stereo unspecified) ? inactive
